Assign T/C to each entry below.
- System: B16
- ASSAY NOTES: Effect of compound on the survival time of mice bearing the B16 melanoma at a daily dose of 25 mg/kg
- Format: functional, Mus musculus
Write down the value, and be sure its unit follows.

Some solved entries appear below for comparison.
The reported B16 T/C of COC(=O)SNN(C)S(=O)(=O)c1ccc(OC)cc1 is 160%

Tested on B16, the item COC(=O)SNNS(=O)(=O)c1ccc(C)cc1 showed T/C equal to 113%

Param item: COC(=O)SNN(C)S(=O)(=O)c1ccc2ccccc2c1 ; param system: B16; output T/C: 140%

Reported T/C (B16) for entry COC(=O)SNN(C)S(=O)(=O)c1ccccc1 is 183%

The reported B16 T/C of COC(=O)SNN(C)S(=O)(=O)c1ccc(C)cc1 is 199%

Parameters: items (list). Returns: T/C for each item.
1. COC(=O)SNN(C)S(=O)(=O)Cc1ccccc1
2. COC(=O)SNN(C)S(=O)(=O)c1ccc(Br)cc1

["157%", "146%"]

* * *

- Tested on: L1210
- ASSAY NOTES: Effect of compound on the body weight of mice bearing the L1210 leukemia at a daily dose of 12.5-50 mg/kg
- Type: functional, Mus musculus
For each record, write down the corresponding Change in weight.
One number for each entry, in %.

Consider the reported Change in weight for these molecules:
// recorded Change in weight for COC(=O)SNN(C)S(=O)(=O)c1ccccc1 : -10.9

The recorded Change in weight for entry COC(=O)SNN(C)S(=O)(=O)c1ccc(Br)cc1 equals -0.2

Reported Change in weight for COC(=O)SNN(C)S(=O)(=O)c1ccc(C)cc1 was -4.2

So for COC(=O)SNN(C)S(=O)(=O)c1ccc(OC)cc1 , the logged Change in weight turned out to be -6.7

Next:
Noted for COC(=O)SNN(C)S(=O)(=O)Cc1ccccc1 : its Change in weight reads -8

* * *

- Tested on: B16
- ASSAY NOTES: Effect of compound on the body weight of mice bearing the B16 melanoma at a daily dose of 50 mg/kg
- Format: functional, Mus musculus
# label = True if Change in weight < -20% else False

Please review the entries below; each comes with its answer.
Is Change in weight of COC(=O)SNN(C)S(=O)(=O)c1ccccc1 strictly below -20%?
True

Is -20% strictly greater than the compound's reported Change in weight? compound: COC(=O)SNNS(=O)(=O)c1ccc(C)cc1
False

Problem: For the compound COC(=O)SNN(C)S(=O)(=O)Cc1ccccc1 , is Change in weight under -20%?
True

Shift focus to the following entry.
Criterion: Change in weight strictly below -20%. Is it met by COC(=O)SNN(C)S(=O)(=O)c1ccc(Br)cc1 ?
False

* * *

- System: B16
- ASSAY NOTES: Effect of compound on the body weight of mice bearing the B16 melanoma at a daily dose of 12.5 mg/kg
- Assay type: functional, Mus musculus
Would you mind telling me the reported Change in weight of each entry?
One number for each entry, in %.

Please review the following examples before continuing.
Value of measured Change in weight for the entry COC(=O)SNNS(=O)(=O)c1ccc(C)cc1 : 1.6

Entry COC(=O)SNN(C)S(=O)(=O)c1ccc2ccccc2c1 ; Change in weight = -0.2

So, COC(=O)SNN(C)S(=O)(=O)Cc1ccccc1 ? Its Change in weight was -2.5

Value of Change in weight reported for the compound COC(=O)SNN(C)S(=O)(=O)c1ccc(Br)cc1 is -2

Go through the list and state Change in weight for each entry.
1. COC(=O)SNN(C)S(=O)(=O)c1ccc(C)cc1
2. COC(=O)SNN(C)S(=O)(=O)c1ccc(OC)cc1
3. CN(C)/N=N/c1[nH]cnc1C(N)=O [DACARBAZINE]
4. COC(=O)SNN(C)S(=O)(=O)c1ccccc1

[0.7, -0.2, -2.3, -5.2]
